- TEST CONDITIONS: in n-hexanol, 323.15 K
OBSERVED PROPERTY: solubility (mole fraction)
Lab note: record just the number, no unit beside it.

Return solubility (mole fraction) (reported value) for this compound: Cl.c1ccc([C@H]2CN3CCSC3=N2)cc1 0.00524

====

- TEST CONDITIONS: in DMSO, 298.15 K
OBSERVED PROPERTY: solubility (mole fraction)

Return solubility (mole fraction) (reported value) for this compound: Cl.c1ccc([C@H]2CN3CCSC3=N2)cc1 0.0129

====

- TEST CONDITIONS: in n-hexanol, 283.15 K
OBSERVED PROPERTY: solubility (mole fraction)

Return solubility (mole fraction) (reported value) for this compound: Cl.c1ccc([C@H]2CN3CCSC3=N2)cc1 0.000727
